Reported MC4R cAMP EC50 values follow for various binders
Biological target: human melanocortin 4 receptor (human, UniProt P32245 1-332)
Sequence (P32245 whole entry): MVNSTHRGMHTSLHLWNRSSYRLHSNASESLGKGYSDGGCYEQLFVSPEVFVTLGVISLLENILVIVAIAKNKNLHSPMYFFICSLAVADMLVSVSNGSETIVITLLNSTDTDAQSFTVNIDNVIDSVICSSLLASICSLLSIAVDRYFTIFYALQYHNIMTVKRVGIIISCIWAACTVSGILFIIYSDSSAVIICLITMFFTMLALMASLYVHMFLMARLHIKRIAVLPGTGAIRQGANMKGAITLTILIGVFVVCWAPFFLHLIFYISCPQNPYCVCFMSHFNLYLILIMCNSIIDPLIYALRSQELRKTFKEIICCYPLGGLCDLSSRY
Experiment: cell-based or functional assay
Positions of bridges follow the written chain, without caps; N, C: chain ends. Non-standard residues stand in square brackets, D forms with d. Phe(3,4-(OMe)2) = COc1ccc(C[C@H](N)C(=O)O)cc1OC; Cit = NC(=O)NCCC[C@H](N)C(=O)O
MEASURED_ATTRIBUTE: MC4R cAMP EC50 (nM)

INSERT INTO assay_data (binder, observed_measurement) VALUES
  ('cyclo(CAH[dF]R[Phe(3,4-(OMe)2)]CAKKKW) (disulfide 1-7; SMILES COc1ccc(C[C@@H]2NC(=O)[C@H](CCCNC(=N)N)NC(=O)[C@@H](Cc3ccccc3)NC(=O)[C@H](Cc3c[nH]cn3)NC(=O)[C@H](C)NC(=O)[C@@H]3CSSC[C@H](NC2=O)C(=O)N[C@@H](C)C(=O)N[C@@H](CCCCN)C(=O)N[C@@H](CCCCN)C(=O)N[C@@H](CCCCN)C(=O)N[C@@H](Cc2c[nH]c4ccccc24)C(=O)N3)cc1OC, also called c[c[Cys-Ala-His-D-Phe-Arg-3,4-DiMeo-Phe-Cys]-Ala-Lys-Lys-Lys-Trp]) [Chem. 67]', 2.99),
  ('cyclo(CPH[dF][Cit]WCAKKKR) (disulfide 1-7; SMILES C[C@@H]1NC(=O)[C@@H]2CSSC[C@H](NC(=O)[C@H](CCCNC(=N)N)NC(=O)[C@H](CCCCN)NC(=O)[C@H](CCCCN)NC(=O)[C@H](CCCCN)NC1=O)C(=O)N1CCC[C@H]1C(=O)N[C@@H](Cc1c[nH]cn1)C(=O)N[C@H](Cc1ccccc1)C(=O)N[C@@H](CCCNC(N)=O)C(=O)N[C@@H](Cc1c[nH]c3ccccc13)C(=O)N2, Printed shorthand is identical to that of Chem. 99; the drawings may differ; also called c[c[Cys-Pro-His-D-Phe-Cit-Trp-Cys]-Ala-Lys-Lys-Lys-Arg]) [Chem. 72]', 0.03),
  ('cyclo(CPH[dF]HWCAH[dK][dK]R) (disulfide 1-7; SMILES C[C@@H]1NC(=O)[C@@H]2CSSC[C@H](NC(=O)[C@H](CCCNC(=N)N)NC(=O)[C@@H](CCCCN)NC(=O)[C@@H](CCCCN)NC(=O)[C@H](Cc3c[nH]cn3)NC1=O)C(=O)N1CCC[C@H]1C(=O)N[C@@H](Cc1c[nH]cn1)C(=O)N[C@H](Cc1ccccc1)C(=O)N[C@@H](Cc1c[nH]cn1)C(=O)N[C@@H](Cc1c[nH]c3ccccc13)C(=O)N2) [Chem. 121]', 0.24),
  ('cyclo(CEH[dF]RWCEH[dF]RW) (disulfide 1-7; SMILES N=C(N)NCCC[C@@H]1NC(=O)[C@@H](Cc2ccccc2)NC(=O)[C@H](Cc2c[nH]cn2)NC(=O)[C@H](CCC(=O)O)NC(=O)[C@@H]2CSSC[C@H](NC(=O)[C@H](Cc3c[nH]c4ccccc34)NC1=O)C(=O)N[C@@H](CCC(=O)O)C(=O)N[C@@H](Cc1c[nH]cn1)C(=O)N[C@H](Cc1ccccc1)C(=O)N[C@@H](CCCNC(=N)N)C(=O)N[C@@H](Cc1c[nH]c3ccccc13)C(=O)N2, also called c[c[Cys-Glu-His-D-Phe-Arg-Trp-Cys]-Glu-His-D-Phe-Arg-Trp]) [Chem. 51]', 0.2);
